test: Growth inhibition of human IGROV1 cells at 10 uM after 48 hrs by sulforhodamine B assay; type: functional; settings: IGROV-1, 48 h, values are per cent of control
Each record's growth, % of control at 10 µM is compared with low bracket: < 50%; middle bracket: ≥ 50% and < 90%; high bracket: ≥ 90% to give its class.

Worked examples follow.
SMILES REPR	CLASSIFICATION
COc1ccc(/C=C(\C#N)c2ccc3c(c2)OCO3)c2ccccc12	low bracket
COc1ccc(/C=C(\C#N)c2ccc3c(c2)OCO3)cc1OC	high bracket
COc1ccc(/C=C(\C#N)c2ccc3c(c2)OCO3)c(OC)c1	low bracket
COc1ccc(/C=C(\C#N)c2ccc3c(c2)OCO3)cc1	low bracket
COc1ccc(/C=C(\C#N)c2ccc3c(c2)OCO3)c(Cl)c1OC	middle bracket
COc1cc(/C=C(\C#N)c2ccc3c(c2)OCO3)cc(OC)c1	middle bracket

Input line: Category of COc1cc(/C=C(\C#N)c2ccc3c(c2)OCO3)cc(OC)c1OC , please.
Output line: high bracket

Input line: Category of N#C/C(=C\c1cc(F)cc(F)c1)c1ccc2c(c1)OCO2 , please.
Output line: high bracket

Input line: Category of N#C/C(=C\c1cc(Br)cc(Br)c1)c1ccc2c(c1)OCO2 , please.
Output line: middle bracket
